molecular target: HDAC6 (Homo sapiens, UniProt Q9UBN7); construct: purchased Reaction Biology Corporation (assay run by the CRO); assay: HDAC6 inhibition, full IC50 measurement (Reaction Biology; fluorogenic p53 peptide RHKK(Ac)AMC); format: biochemical; conditions: Conc. 1.23E-07 M, t2
Sequence (Q9UBN7 whole entry): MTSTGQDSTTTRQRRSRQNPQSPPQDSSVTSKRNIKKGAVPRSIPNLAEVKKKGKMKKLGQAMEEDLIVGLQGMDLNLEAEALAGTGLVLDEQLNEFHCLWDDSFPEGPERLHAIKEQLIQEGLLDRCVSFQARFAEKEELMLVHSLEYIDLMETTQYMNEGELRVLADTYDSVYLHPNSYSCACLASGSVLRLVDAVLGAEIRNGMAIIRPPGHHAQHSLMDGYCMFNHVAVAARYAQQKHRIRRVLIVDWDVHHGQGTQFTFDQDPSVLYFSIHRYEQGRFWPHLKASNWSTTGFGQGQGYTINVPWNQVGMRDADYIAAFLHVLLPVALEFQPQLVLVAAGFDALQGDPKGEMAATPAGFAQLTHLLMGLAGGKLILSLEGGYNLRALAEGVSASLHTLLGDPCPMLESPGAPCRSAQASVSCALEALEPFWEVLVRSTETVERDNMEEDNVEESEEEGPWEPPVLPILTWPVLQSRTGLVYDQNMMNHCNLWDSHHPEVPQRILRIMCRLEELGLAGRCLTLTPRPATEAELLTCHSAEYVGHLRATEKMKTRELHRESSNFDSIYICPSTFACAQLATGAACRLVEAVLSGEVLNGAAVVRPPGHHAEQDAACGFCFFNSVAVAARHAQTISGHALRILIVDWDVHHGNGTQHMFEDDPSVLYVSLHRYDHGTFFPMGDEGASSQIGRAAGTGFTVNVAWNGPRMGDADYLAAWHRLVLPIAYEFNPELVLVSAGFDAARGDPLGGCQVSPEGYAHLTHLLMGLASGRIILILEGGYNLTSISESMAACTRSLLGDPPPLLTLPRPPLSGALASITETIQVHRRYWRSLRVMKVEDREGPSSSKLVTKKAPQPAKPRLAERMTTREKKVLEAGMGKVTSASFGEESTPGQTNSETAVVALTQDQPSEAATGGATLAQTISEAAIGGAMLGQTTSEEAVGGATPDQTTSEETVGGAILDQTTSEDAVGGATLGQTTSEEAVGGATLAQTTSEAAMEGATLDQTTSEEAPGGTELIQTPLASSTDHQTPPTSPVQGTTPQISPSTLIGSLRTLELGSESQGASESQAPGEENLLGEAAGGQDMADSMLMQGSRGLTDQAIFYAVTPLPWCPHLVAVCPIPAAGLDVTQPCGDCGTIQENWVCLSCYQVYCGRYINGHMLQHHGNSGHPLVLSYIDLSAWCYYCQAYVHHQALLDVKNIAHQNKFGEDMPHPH
Peptide text beside a SMILES is read from it.
PROPERTY_NAME: HDAC6 activity raw data (signal)

compound="NCCCC[C@H]1NC(=O)[C@H](CCC(N)=O)NC(=O)[C@H](CCC(=O)O)NC(=O)[C@@H]2CCCN2C(=O)[C@H](CC(N)=O)NC(=O)[C@H](CCCCCS)NC(=O)CNC(=O)[C@H](Cc2c[nH]c3ccccc23)NC1=O [des1.1.1, SHA-Asn-Pro-Glu-Gln-dLys-Trp-Gly] (HELM PEPTIDE1{E.Q.[dK].W.G.[O=C([C@H](CCCCCS)N[*:1])[*:2]].N.P}$PEPTIDE1,PEPTIDE1,1:R1-8:R2$$$V2.0)" data_value=111620

* * *

target: HDAC2 (Homo sapiens); construct: purchased Reaction Biology Corporation (assay run by the CRO); assay: HDAC2 inhibition, full IC50 measurement (Reaction Biology; fluorogenic p53 peptide RHKK(Ac)AMC); format: biochemical; conditions: Conc. 1.11E-06 M, t1
Sequence (Q92769 whole entry): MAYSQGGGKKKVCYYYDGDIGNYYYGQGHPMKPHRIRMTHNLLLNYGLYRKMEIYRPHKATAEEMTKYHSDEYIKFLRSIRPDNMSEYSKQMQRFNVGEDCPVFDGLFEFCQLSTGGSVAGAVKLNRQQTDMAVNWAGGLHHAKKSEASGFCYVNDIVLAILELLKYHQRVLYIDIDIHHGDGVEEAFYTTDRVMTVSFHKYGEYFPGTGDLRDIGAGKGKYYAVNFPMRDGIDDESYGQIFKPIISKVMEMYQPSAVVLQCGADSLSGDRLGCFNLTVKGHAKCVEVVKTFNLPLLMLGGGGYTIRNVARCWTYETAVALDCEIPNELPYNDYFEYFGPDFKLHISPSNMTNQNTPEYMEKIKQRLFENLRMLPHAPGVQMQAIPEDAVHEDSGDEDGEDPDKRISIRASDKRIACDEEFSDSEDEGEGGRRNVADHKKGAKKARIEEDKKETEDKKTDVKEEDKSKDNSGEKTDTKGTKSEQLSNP
Peptide text beside a SMILES is read from it.
PROPERTY_NAME: HDAC2 activity raw data (signal)

compound="NCCCC[C@@H]1NC(=O)[C@@H]2CCCN2C(=O)[C@H](CC(N)=O)NC(=O)[C@H](CCCCCS)NC(=O)CNC(=O)[C@H](Cc2c[nH]c3ccccc23)NC(=O)[C@@H](CCCCN)NC(=O)[C@H](CCC(N)=O)NC1=O [des1.1.0, SHA-Asn-Pro-Lys-Gln-dLys-Trp-Gly] (HELM PEPTIDE1{G.[O=C([C@H](CCCCCS)N[*:1])[*:2]].N.P.K.Q.[dK].W}$PEPTIDE1,PEPTIDE1,1:R1-8:R2$$$V2.0)" data_value=219707
compound="CCCC[C@H]1NC(=O)[C@H](Cc2ccccc2)NC(=O)[C@H](CCCCCS)NC(=O)[C@@H](CO)NC(=O)[C@H](CC(=O)O)NC(=O)[C@@H](CO)NC(=O)[C@@H](C)NC(=O)[C@H](CCCCN)NC1=O [des4.3.1.1, SHA-Phe-dNle-Lys-dAla-dSer-Asp-dSer] (HELM PEPTIDE1{D.[dS].[O=C([C@H](CCCCCS)N[*:1])[*:2]].F.[CCCC[C@@H](N[*:1])C(=O)[*:2]].K.[dA].[dS]}$PEPTIDE1,PEPTIDE1,1:R1-8:R2$$$V2.0)" data_value=1660902
compound="C[C@H](O)[C@H]1NC(=O)[C@H](Cc2c[nH]c3ccccc23)NC(=O)[C@H](CCCCCS)NC(=O)[C@H](CCCCN)NC(=O)[C@@H](CC(=O)O)NC(=O)[C@@H](CCCCN)NC(=O)[C@@H](CO)NC(=O)[C@H](CC(N)=O)NC(=O)[C@H](CC(=O)O)NC1=O [des2.1.0, SHA-Trp-dThr-Asp-Asn-dSer-dLys-dAsp-Lys] (HELM PEPTIDE1{D.N.[dS].[dK].[dD].K.[O=C([C@H](CCCCCS)N[*:1])[*:2]].W.[dT]}$PEPTIDE1,PEPTIDE1,1:R1-9:R2$$$V2.0)" data_value=59204
compound="N=C(N)NCCC[C@@H]1NC(=O)[C@H](Cc2c[nH]c3ccccc23)NC(=O)[C@H](CC(=O)O)NC(=O)[C@@H](CO)NC(=O)[C@H](Cc2c[nH]c3ccccc23)NC(=O)[C@H](CCCCCS)NC(=O)[C@H](CCC(N)=O)NC1=O [des4.1.0, SHA-Trp-dSer-Asp-Trp-Arg-Gln] (HELM PEPTIDE1{D.W.R.Q.[O=C([C@H](CCCCCS)N[*:1])[*:2]].W.[dS]}$PEPTIDE1,PEPTIDE1,1:R1-7:R2$$$V2.0)" data_value=79842
